# system.under.test: T1, cynomolgus monkey PCSK9 (cynomolgus monkey, UniProt A0A7N9D9N8 150-747)
# T1 chain: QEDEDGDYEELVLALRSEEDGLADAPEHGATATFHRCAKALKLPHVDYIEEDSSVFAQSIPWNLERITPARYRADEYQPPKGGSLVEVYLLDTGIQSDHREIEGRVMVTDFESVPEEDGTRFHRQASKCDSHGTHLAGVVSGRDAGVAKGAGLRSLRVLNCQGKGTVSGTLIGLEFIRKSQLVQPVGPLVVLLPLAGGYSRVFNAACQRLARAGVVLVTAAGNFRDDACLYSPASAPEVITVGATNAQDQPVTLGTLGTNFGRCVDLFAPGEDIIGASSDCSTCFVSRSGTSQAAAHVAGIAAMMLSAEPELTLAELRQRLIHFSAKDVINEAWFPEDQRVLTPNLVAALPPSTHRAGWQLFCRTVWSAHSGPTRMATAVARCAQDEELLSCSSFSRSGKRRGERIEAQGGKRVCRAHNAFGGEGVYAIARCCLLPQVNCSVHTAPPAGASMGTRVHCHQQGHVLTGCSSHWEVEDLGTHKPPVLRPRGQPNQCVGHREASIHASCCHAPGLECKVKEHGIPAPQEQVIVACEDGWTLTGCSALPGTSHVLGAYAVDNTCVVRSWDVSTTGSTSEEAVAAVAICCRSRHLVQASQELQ
# assay.summary: ELISA
measurement.type: EC50 (nM)
Entry rule: numbers only, all in nM.

Task item: Need EC50 of Ab5 (antibody, V domains shown) VH: QSVEESGGRLVTPGTPLTLTCTVSGFSLSSYAMSWVRQAPGKGLEWIGIISNSGTTYYASWAKGRFTISKTSTTVDLKITSPTTEDTATYFCARGIYWYWRVFNLWGPGTLVTVSS VL: AVLTQTPSPVSAAVGGTVTINCQASQSVYNNLLSWYQQKPGQPPKLLIYDASNLASGVPDRFSGSGSGTQFTLTISGVQCDDAATYYCLGGYDDDADNAFGGGTEVVVKR , thanks.
Reply: 0.169
